assay: Racecadotril and degradation products over time in Acetate and Citrate at pH 3.6, 4.0, 4.5 (untitled table); assay type: physicochemical; details: Citrate, pH 4.0, Initial
value.kind: Benz Alcohol (%)
One number for each entry, in %.

**Query** So what's the measured Benz Alcohol for this one? CC(=O)SCC(Cc1ccccc1)C(=O)NCC(=O)OCc1ccccc1 (racemic) [Racecadotril]
**Result** 0

---

Test: Racecadotril and degradation products over time in Acetate and Citrate at pH 3.6, 4.0, 4.5 (untitled table)
Format: physicochemical
Details: Acetate, pH 4.5, 2 week
Experimental: • 1. Pipet 1 mL of Racecadotril solution into a 100 mL volumetric flask (V.F.) • 2. Dilute to volume with the same buffer used in the solution preparation. • 3. […] Parameters may be modified to optimize chromatography. • The assay of Racecadotril is determined by using the external standard injected. The degradation products levels are determined by % peak area relative to the Racecadotril peak. [table] […]
value.kind: Benz Alcohol (%)
Numbers only, in %.

**Query** So what's the measured Benz Alcohol for this one? CC(=O)SCC(Cc1ccccc1)C(=O)NCC(=O)OCc1ccccc1 (racemic)
**Result** 0.4

---

experiment: Racecadotril and degradation products over time in Acetate and Citrate at pH 3.6, 4.0, 4.5 (untitled table); format: physicochemical; conditions: Citrate, pH 4.0, 4 week
value.kind: Benz Alcohol (%)
One number for each entry, in %.

**Query** So what's the measured Benz Alcohol for this one? CC(=O)SCC(Cc1ccccc1)C(=O)NCC(=O)OCc1ccccc1 (racemic)
**Result** 2.79

---

experiment: Racecadotril and degradation products over time in Acetate and Citrate at pH 3.6, 4.0, 4.5 (untitled table); format: physicochemical; conditions: Citrate, pH 4.5, 1 week
value.kind: Thiorphan

**Query** So what's the measured Thiorphan for this one? CC(=O)SCC(Cc1ccccc1)C(=O)NCC(=O)OCc1ccccc1 (racemic)
**Result** 0.01%

---

Assay: Racecadotril and degradation products over time in Acetate and Citrate at pH 3.6, 4.0, 4.5 (untitled table)
Assay type: physicochemical
Conditions: Acetate, pH 4.5, Initial
Procedure: • 1. Pipet 1 mL of Racecadotril solution into a 100 mL volumetric flask (V.F.) • 2. Dilute to volume with the same buffer used in the solution preparation. • 3. […] Parameters may be modified to optimize chromatography. • The assay of Racecadotril is determined by using the external standard injected. The degradation products levels are determined by % peak area relative to the Racecadotril peak. [table] […]
value.kind: Thiorphan (%)
Answers are plain numbers, in %.

**Query** So what's the measured Thiorphan for this one? CC(=O)SCC(Cc1ccccc1)C(=O)NCC(=O)OCc1ccccc1 (racemic) [Racecadotril]
**Result** 0.01

---

assay: Racecadotril and degradation products over time in Acetate and Citrate at pH 3.6, 4.0, 4.5 (untitled table); format: physicochemical; conditions: Acetate, pH 3.6, Initial
value.kind: Thiorphan (%)
Give bare numbers, in %.

**Query** So what's the measured Thiorphan for this one? CC(=O)SCC(Cc1ccccc1)C(=O)NCC(=O)OCc1ccccc1 (racemic)
**Result** 0

---

assay: Racecadotril and degradation products over time in Acetate and Citrate at pH 3.6, 4.0, 4.5 (untitled table); format: physicochemical; details: Citrate, pH 4.5, Initial
value.kind: Benz Alcohol (%)
Give bare numbers, in %.

**Query** So what's the measured Benz Alcohol for this one? CC(=O)SCC(Cc1ccccc1)C(=O)NCC(=O)OCc1ccccc1 (racemic) [Racecadotril]
**Result** 0.02
